Tested on: MRSA USA400
method: MIC against MRSA USA400
Assay type: cell-based, Staphylococcus aureus
assay.setup: Staphylococcus aureus; TSB, 37 °C, 18–20 hours; read-out: MIC, Staphylococcus aureus isolate USA400
Measured MIC values are reported for all entries that follow.
Your answer should be a plain number; it is taken to be in µg/mL.

Could you share which MIC value was measured for COc1ccc2ccc(OCCCCCCCCNCCc3ccc(Br)cc3)cc2c1 ?
4

What value of MIC has been recorded for this entry: COc1ccc2ccc(OC/C=C/COCCCNCCc3ccc(F)cc3)cc2c1
8

So what's the measured MIC for this one? C=CCN(C)CCCCCCCCOc1ccc2cc(Br)c(OCc3ccccc3)cc2c1
8

Suppose we examine the compound Clc1ccc(CCNCCCCCCCCOc2ccc3cc(Br)ccc3c2)cc1 ; what MIC value has been reported?
64

Return reported MIC; argument: COc1ccc2ccc(OCCCCCCCCNCCc3ccc(Cl)cc3)cc2c1
4

---
If you can, please state the reported MIC value of C=CCN(C)CCCCCCCCOc1ccc2ccc(OC)cc2c1 .
16

Give its MIC value. Item: Fc1ccc(CCNCCCCCCCCOc2ccc3cc(Br)ccc3c2)cc1
8
